Numbers sourced from patent US11472855.

Target: T1, hPUF_MT(R2_N12S,Q16E, R3→R5, R4→R6) (R2 repeat N12S,Q16E)
T1 chain: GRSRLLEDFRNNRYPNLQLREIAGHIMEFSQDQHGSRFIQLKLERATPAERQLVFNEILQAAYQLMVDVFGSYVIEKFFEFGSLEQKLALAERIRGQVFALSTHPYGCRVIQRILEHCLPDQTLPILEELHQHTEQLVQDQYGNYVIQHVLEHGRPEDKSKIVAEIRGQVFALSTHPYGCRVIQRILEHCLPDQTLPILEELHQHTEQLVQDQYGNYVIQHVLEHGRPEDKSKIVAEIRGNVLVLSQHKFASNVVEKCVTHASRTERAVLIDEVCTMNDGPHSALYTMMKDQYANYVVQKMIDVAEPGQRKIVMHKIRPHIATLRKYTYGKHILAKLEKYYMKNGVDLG
Assay: EMSA; binds G exclusively
Conditions: label: Alexa680 at 5' and 3'
recorded_metric: binding result

> print(dat)
                                   binder         val
1  CCAGAAUUGUAUAGAUUCG (ssRNA) [OTS-2024]       binds
2  CCAGAAUUGUAUACAUUCG (ssRNA) [OTS-2025]  no binding
3  CCAGAAUUGUAUAUAUUCG (ssRNA) [OTS-1511]  no binding
4  CCAGAAUUGUAUAAAUUCG (ssRNA) [OTS-2023]  no binding
